Hello, the source for this data is the Immune Epitope Database (IEDB), in case you need it.

target_under_test: HLA-B*07:02
protocol: IEDB peptide-MHC binding, purified MHC/direct/fluorescence; filed as Kd, often an IC50 or EC50 that approximates it; bounds were set here for any values at or beyond the usual limits of such assays
condition_details: source organism: Giardia intestinalis
pKd: −log10 of the molar value.
measured_metric: pKd

Any idea what its pKd is? The sequence is `RTMPLSRFT`
≤ 4.70

====

Assignment: determine reported Kd for the given sequences.
target_under_test: HLA-B*44:02
protocol: IEDB peptide-MHC binding, purified MHC/competitive/radioactivity; filed as Kd, often an IC50 or EC50 that approximates it; bounds were set here for any values at or beyond the usual limits of such assays
condition_details: source organism: Dengue virus 2 Jamaica/1409/1983
One number for each entry, in nM.

# annotated cases, reported Kd shown
>>> assay_value("LERAADVKW")
130
>>> assay_value("GERKKLKPRW")
839

Alright, here's another sequence for you.
Any idea what its Kd is? The sequence is `AEAIFKLTYQ`
200
